# System: PKC-neg-40B-Luc minigene in 293T cells
# procedure text: Luciferase splicing reporter screen of the LOPAC 1280 library
# Type: cell-based
# test conditions: luciferase fold-increase over the Average control (DMSO) norm; 293T reporter cells, 24 hours
assay readout: Avg DMSO Norm (fold)
Give just the number in fold; leave the unit off.

# annotated cases, reported Avg DMSO Norm shown
CC(C)NCC(O)c1ccc(O)c(O)c1.Cl (racemic) [(±)-Isoproterenol hydrochloride]
1.663
COc1cc([C@@H]2c3cc4c(cc3[C@H](O)[C@H]3COC(=O)[C@H]23)OCO4)cc(OC)c1OC
1.985
Cc1ccc(O)c(N=Nc2ccccc2)n1
2.803

--- query ---
**Q:** Would you kindly share the measured Avg DMSO Norm for CNC[C@H](O)c1ccc(O)c(O)c1.O=C(O)C(O)C(O)C(=O)O [(−)-Epinephrine bitartrate] ?
**A:** 1.654
